- experimentalTarget: T1, THAP1 THAP domain D17G (human, UniProt Q9NVV9 1-81, D17G)
- T1 sequence: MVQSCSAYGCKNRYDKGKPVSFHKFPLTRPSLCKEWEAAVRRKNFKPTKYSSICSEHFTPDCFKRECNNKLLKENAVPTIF
- methodNotes: fluorescence quenching
reportedMetric: Kd

binder: RRM1 16-bp DNA probe (dsDNA) DNA 1: GCTTGTGTGGGCAGCG DNA 2: CGCTGCCCACACAAGC
measuredResult: 25 nM
